- Test system: Escherichia coli
- assay overview: minimum inhibitory concentration (MIC)
- test conditions: isolate (source animal id): 142
measure name: minimum inhibitory concentration (µg/mL)
Give the quantity in µg/mL, number only.

CC1(C)S[C@@H]2[C@H](NC(=O)[C@H](N)c3ccccc3)C(=O)N2[C@H]1C(=O)O : 4
CN[C@@H]1[C@H](O)[C@H](NC)[C@H]2O[C@@]3(O)C(=O)C[C@@H](C)O[C@H]3O[C@@H]2[C@H]1O : 16

# input for lookup
Lookup: Find the measured minimum inhibitory concentration: item CO/N=C(\C(=O)N[C@@H]1C(=O)N2C(C(=O)O)=C(CSC(=O)c3ccco3)CS[C@H]12)c1csc(N)n1 , target or system Escherichia coli.
Found: 0.5
